ASSAY INFO: viability gain of MRP-1-high H69AR cells under doxorubicin, pilot screen, MRP-1 activator project, CellTiter-Glo, duplicate (AID 807);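 also: compound pretreatment 18-22 h then 72 h combined with doxorubicin; 0% = doxorubicin alone and 100% = vehicle without doxorubicin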
DETAILS: H69AR viability with doxorubicin, CellTiter-Glo luminescence; at 10 µM; stronger effect = higher value
ASSAY ENDPOINT: viability increase (%)

[[record]]
compound = "Cc1ccnc(SCCn2c(N3CCCCC3)nc3c2c(=O)[nH]c(=O)n3C)n1"
units_symbol = "%"
observed_measurement = 0.17

[[record]]
compound = "NS(=O)(=O)c1ccc(CCNC(=O)NC2(C(F)(F)F)Oc3ccccc3O2)cc1"
units_symbol = "%"
observed_measurement = -6.42

[[record]]
compound = "CN(C)/C=N/c1c(C#N)cnn1-c1ccccc1"
units_symbol = "%"
observed_measurement = -1.11

[[record]]
compound = "O=C1N(O)C2(C=CCCC2)/C(=N\\O)C12CCCCC2 (stereo unspecified)"
units_symbol = "%"
observed_measurement = -2.64

[[record]]
compound = "O=C(CCSCCC(=O)NCc1ccco1)NCc1ccco1"
units_symbol = "%"
observed_measurement = -1.12

[[record]]
compound = "COc1ccc(-c2csc(N3CCN(C(=O)c4ccco4)CC3)n2)cc1"
units_symbol = "%"
observed_measurement = 2.74


###

ASSAY INFO: growth suppression of PTEN-deleted HCT116, pilot screen, cell-based, HCT116 clonal line, CellTiter-Glo (AID 824);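 also: 0% = 20 µM Hyamine control and 100% = vehicle cell control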
DETAILS: 60 h, at 10 µM, stronger effect = lower value
Results filed as inconclusive are left out.
Note to self: use fulfilled only for viability readings below 90%; a reading exactly at 90% still gets not fulfilled.

[[record]]
compound = "CC(=O)c1sc2ccccc2c1OC(=O)c1ccco1"
class = "fulfilled"

[[record]]
compound = "c1cncc(-c2noc(-c3ccco3)n2)c1"
class = "not fulfilled"

[[record]]
compound = "O=S(=O)(NCCOCCNS(=O)(=O)c1ccccc1)c1ccccc1"
class = "not fulfilled"

[[record]]
compound = "Cn1c2c(c3ccccc31)CC/C2=N\\O"
class = "not fulfilled"

[[record]]
compound = "CCCc1cc(C(=O)Nc2cccnc2)no1"
class = "not fulfilled"

[[record]]
compound = "CCOC(=O)/C=C1\\SCC(=O)N1CCOc1cccc(Br)c1"
class = "fulfilled"

[[record]]
compound = "Cc1ccc2oc3c(c(=O)c2c1)C(c1cccc(O)c1)N(c1ccccn1)C3=O (stereo unspecified)"
class = "fulfilled"

[[record]]
compound = "Cc1c(-c2ccco2)[n+](=O)c2c(n1[O-])CCCCC2"
class = "not fulfilled"

[[record]]
compound = "CCC(C)NC(=O)C1CN(S(=O)(=O)c2ccccc2)CCN1S(=O)(=O)c1ccccc1 (stereo unspecified)"
class = "not fulfilled"

[[record]]
compound = "O=C(Oc1c(Cl)cc(Cl)c2cccnc12)N1CCCCC1"
class = "fulfilled"

[[record]]
compound = "Cn1c(=O)oc2cc(S(=O)(=O)N3CCCC(C(=O)N4CC=C(c5ccccc5)CC4)C3)ccc21 (stereo unspecified)"
class = "fulfilled"

[[record]]
compound = "CC(C)CC(NC(=O)c1ccco1)C(=O)Nc1ccc2c(c1)OCCO2 (stereo unspecified)"
class = "not fulfilled"

[[record]]
compound = "Cc1ccc(C(=O)NCCNC(=O)CN2CCCC2)cc1"
class = "not fulfilled"

[[record]]
compound = "CSc1nc(C)nc2c1c(=O)n(C)c(=O)n2C"
class = "not fulfilled"

[[record]]
compound = "COc1cc(OC)cc(C(=O)Nn2cc(C(=O)N3CCN(C)CC3)c3ccccc3c2=O)c1"
class = "not fulfilled"

[[record]]
compound = "OC(COc1ccc2ccccc2c1)CN1CCN(c2ccc(F)cc2)CC1 (stereo unspecified)"
class = "fulfilled"

[[record]]
compound = "COc1ccc(OC)c(C2CC(=O)N3CN(c4ccc(C)c(Cl)c4)CSC3=C2C#N)c1 (stereo unspecified)"
class = "not fulfilled"

[[record]]
compound = "C=CCSC1=N/C(=C\\c2ccc3c(c2)OCO3)C(=O)S1"
class = "not fulfilled"

[[record]]
compound = "CCn1c(=NC(=O)CN2C(=O)CCC2=O)sc2c(OC)ccc(OC)c21"
class = "not fulfilled"

[[record]]
compound = "CC1=CS/C(=C(/C#N)C(=O)N2CCCCC2)N1c1ccccc1"
class = "not fulfilled"

[[record]]
compound = "CCOC(=O)c1c(NC(=O)CN2CCCCC2)sc2c1CCCC2O (stereo unspecified)"
class = "fulfilled"

[[record]]
compound = "COc1ccc(OC)c(NC(=O)C(CC(C)C)NC(=O)C2CCCCC2)c1 (stereo unspecified)"
class = "fulfilled"

[[record]]
compound = "Cc1ccc(C)c(N2CCN(c3ncnc4c3cnn4-c3ccccc3)CC2)c1"
class = "fulfilled"

[[record]]
compound = "O=C(CSCc1ccc(Cl)cc1)NCC1CCCO1 (stereo unspecified)"
class = "not fulfilled"

[[record]]
compound = "CC1=C(C(N)=O)C(c2ccccc2)n2nc(-c3cccc(C)c3)nc2N1 (stereo unspecified)"
class = "not fulfilled"

[[record]]
compound = "O=C1NCCCC1C(=O)N1CCN(C(=O)c2ccco2)CC1 (stereo unspecified)"
class = "not fulfilled"

[[record]]
compound = "CC(CNCc1ccc2c(c1)OCO2)NCc1ccc2c(c1)OCO2 (stereo unspecified)"
class = "fulfilled"

[[record]]
compound = "CN1C(=O)C(O)(CC(=O)c2cccnc2)c2ccccc21 (stereo unspecified)"
class = "fulfilled"

[[record]]
compound = "CCc1nnc(NC(=O)CSc2nccn2-c2cccc(C)c2C)s1"
class = "fulfilled"

[[record]]
compound = "CCCOC(=O)CSC1=C(C#N)C(c2ccccc2Cl)CC(=O)N1 (stereo unspecified)"
class = "fulfilled"

[[record]]
compound = "Cc1ccc2cc(-c3noc(C4CCCO4)n3)c(=O)[nH]c2c1 (stereo unspecified)"
class = "not fulfilled"

[[record]]
compound = "O=C(CSc1nnc(Cn2c(=O)sc3ccccc32)n1CCc1ccccc1)N1CCCC1"
class = "not fulfilled"

[[record]]
compound = "Cc1ccc(S(=O)(=O)N(CC(=O)N2CCOCC2)C2CCCCC2)cc1"
class = "not fulfilled"

[[record]]
compound = "CCN(CC)c1ccc(CNC23CN4CN(CN(C4)C2)C3)cc1"
class = "not fulfilled"

[[record]]
compound = "N=c1n(-c2ccccc2)c(O)cc(=O)n1-c1ccccc1"
class = "not fulfilled"

[[record]]
compound = "CC(C)CC(NC(=O)C1CCCCC1)C(=O)NCc1ccccn1 (stereo unspecified)"
class = "not fulfilled"

[[record]]
compound = "Cc1cc(C)c(NC(=O)C(C)(C)C)c(Cl)c1"
class = "fulfilled"

[[record]]
compound = "O=C(NCCC1=CCCCC1)NC1CCCCC1"
class = "fulfilled"

[[record]]
compound = "COc1cc(NC(=O)C2CC2)c(C(=O)O)cc1OC"
class = "not fulfilled"


###

ASSAY INFO: growth suppression of yeast trafficking mutant, preliminary HTS, modulators of trafficking downstream of Golgi apparatus project, 1536-format plate, OD 615 nm (AID 637)
DETAILS: yeast transport mutant growth, absorbance 615 nm, 18 h; stronger effect = higher value
Parameter: inhibition. Scope: all listed entries.
ASSAY ENDPOINT: inhibition (%)

[[record]]
compound = "O=C(CSc1nnc(C2CC2)n1Cc1ccccc1)c1ccc(S(=O)(=O)N2CCOCC2)cc1"
units_symbol = "%"
observed_measurement = 6.72

[[record]]
compound = "CN(C=O)CP(=O)(O)CCN1CCCC1=O"
units_symbol = "%"
observed_measurement = 0.66

[[record]]
compound = "COc1cccc(OC)c1C(=O)Nc1ccc(CN2CCCCC2)cc1"
units_symbol = "%"
observed_measurement = -2.06

[[record]]
compound = "CCOC(=O)c1ccc(NC(=O)CCc2nc(-c3cccc(C)c3)no2)cc1"
units_symbol = "%"
observed_measurement = 13

[[record]]
compound = "COc1ccc2c(-c3cccnc3)cc(=O)[nH]c2c1"
units_symbol = "%"
observed_measurement = 4.43

[[record]]
compound = "COc1ccc(C2=NOC(C(=O)NC3CCCCC3)C2)cc1OC (stereo not given)"
units_symbol = "%"
observed_measurement = 0.95

[[record]]
compound = "CCN(CC)CCN1C(=O)C(=O)/C(=C(/O)c2c(C)[nH]c(C(=O)OC)c2C)C1c1ccco1 (stereo not given)"
units_symbol = "%"
observed_measurement = -0.16

[[record]]
compound = "CCOC(=O)CSc1nnc(-c2ccc(S(=O)(=O)N3CCOCC3)cc2)n1-c1ccccc1"
units_symbol = "%"
observed_measurement = 1.43

[[record]]
compound = "Cc1ccc(S(=O)(=O)N2CCN(CCO)CC2)cc1-c1nnc2c3ccccc3c(C)nn12"
units_symbol = "%"
observed_measurement = -2.79

[[record]]
compound = "COCC(=O)N(Cc1cc2cc(OC)ccc2[nH]c1=O)c1ccccc1"
units_symbol = "%"
observed_measurement = -6


###

ASSAY INFO: SK-BR-3 cell growth inhibitors, pilot screen, 24 h, human (AID 572);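 also: compound exposure lasted between 18 and 24 h rather than exactly 24 h; 100% = carrier-treated control wells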
DETAILS: SK-BR-3 viability, CellTiter-Glo luminescence, at 10 µM, stronger effect = lower value
Parameter: viability. Scope: all listed entries.
ASSAY ENDPOINT: viability (%)

[[record]]
compound = "CCCCSc1nc2c(cnn2-c2ccc(Cl)cc2)c(=O)[nH]1"
assay_endpoint = "viability"
units_symbol = "%"
observed_measurement = 93

[[record]]
compound = "COCCn1c(C)cc(C(=O)COC(=O)CCN2C(=O)c3ccccc3C2=O)c1C"
assay_endpoint = "viability"
units_symbol = "%"
observed_measurement = 94.5

[[record]]
compound = "Cn1cc(NC(=O)c2cc(NC(=O)c3cc(NC=O)cn3C)cn2C)cc1C(=O)NCCC(=N)N"
assay_endpoint = "viability"
units_symbol = "%"
observed_measurement = 96

[[record]]
compound = "Cc1ccc(-c2cc(C(=O)Nc3cc(C)ccc3C)[nH]n2)c(O)c1"
assay_endpoint = "viability"
units_symbol = "%"
observed_measurement = 102

[[record]]
compound = "COc1cc(C2c3c(oc4c(C)cc(C)cc4c3=O)C(=O)N2Cc2cccnc2)cc(OC)c1OC (configuration not stated)"
assay_endpoint = "viability"
units_symbol = "%"
observed_measurement = 110

[[record]]
compound = "CC(=O)N1CCN(C(=O)COc2ccc(Br)cc2)CC1"
assay_endpoint = "viability"
units_symbol = "%"
observed_measurement = 108

[[record]]
compound = "CCc1cc2ccc(C)cc2nc1SCC(=O)N1CCN(C(=O)c2ccco2)CC1"
assay_endpoint = "viability"
units_symbol = "%"
observed_measurement = 112

[[record]]
compound = "Cc1ccc(-c2nnn(CC(=O)N(CC3CCCO3)C(C(=O)NC(C)(C)C)c3ccc(F)cc3)n2)o1 (configuration not stated)"
assay_endpoint = "viability"
units_symbol = "%"
observed_measurement = 106

[[record]]
compound = "c1ccc2[nH]c(-c3cscn3)nc2c1"
assay_endpoint = "viability"
units_symbol = "%"
observed_measurement = 106

[[record]]
compound = "C/C(N)=C(/C#N)C(=O)COC(=O)COc1ccc(Cl)cc1"
assay_endpoint = "viability"
units_symbol = "%"
observed_measurement = 93

[[record]]
compound = "Clc1ccc(Cn2c(CN3CCCC3)nc3ccccc32)cc1"
assay_endpoint = "viability"
units_symbol = "%"
observed_measurement = 92.5

[[record]]
compound = "CCOC(=O)c1cc(C)n(CCCN2CCOCC2)c1C"
assay_endpoint = "viability"
units_symbol = "%"
observed_measurement = 90.5

[[record]]
compound = "O=C(CSc1nnc2ccccn12)NCCN1C(=O)CSC1=O"
assay_endpoint = "viability"
units_symbol = "%"
observed_measurement = 134

[[record]]
compound = "CCN(CC)CCNC(=O)c1cc(S(C)(=O)=O)ccc1OC"
assay_endpoint = "viability"
units_symbol = "%"
observed_measurement = 114

[[record]]
compound = "CCOc1ccccc1NC(=O)NC1CCN(CC(=O)Nc2ccc3c(c2)OCCO3)CC1"
assay_endpoint = "viability"
units_symbol = "%"
observed_measurement = 119

[[record]]
compound = "O=C(CSc1nnc(-c2ccccc2)c(-c2ccccc2)n1)N1CCOCC1"
assay_endpoint = "viability"
units_symbol = "%"
observed_measurement = 97

[[record]]
compound = "Cc1ccc(-c2[nH]nc3c2C(c2ccc(OC(=O)N4CCOCC4)cc2)C(C#N)=C(N)O3)cc1 (configuration not stated)"
assay_endpoint = "viability"
units_symbol = "%"
observed_measurement = 89

[[record]]
compound = "Cc1csc2nc3ccccc3c(=O)n12"
assay_endpoint = "viability"
units_symbol = "%"
observed_measurement = 100

[[record]]
compound = "CCOC(=O)c1[nH]c(C)c(C(=O)N2CCN(C(=O)c3ccco3)CC2)c1C"
assay_endpoint = "viability"
units_symbol = "%"
observed_measurement = 88.5

[[record]]
compound = "COc1ccc(OC)c(NC(=O)CSc2ncccc2C(=O)O)c1"
assay_endpoint = "viability"
units_symbol = "%"
observed_measurement = 104

[[record]]
compound = "CC(C)CCn1c(=O)c2ccccc2n2c(CN(C)Cc3ccccc3)nnc12"
assay_endpoint = "viability"
units_symbol = "%"
observed_measurement = 83.5

[[record]]
compound = "COC(=O)N1CC(c2ccccc2)CC1=O (configuration not stated)"
assay_endpoint = "viability"
units_symbol = "%"
observed_measurement = 96.5

